# Tested on: NCI-H460
# Assay comment: NCI tumour cell line growth inhibition, 48 h
Activity calls are given as the source filed them. Cut-off read from the data, not from the text of the source: active = GI50 up to about 1.1 µM and inactive = higher. Where a SMILES comes first, the peptide text is derived from it. The star is where a group is joined. Boc = CC(C)(C)OC(=O)*; OSu = O=C1CCC(=O)N1O*
Quantity: GI50

Solved cases (3 shown):
INSERT INTO results (molecule, quantity, measured) VALUES
  ('CC(C)(C)OC(=O)NC(Cc1ccc(O)cc1)C(=O)NC(CCCCN)C(=O)NC(Cc1ccc(O)cc1)C(=O)NC(CCCCN)C(=O)ON1C(=O)CCC1=O (centres undefined) (Boc-YKYK-OSu; configuration not given here)', 'GI50', '> 100 µM (inactive)'),
  ('Cc1cc(=O)oc2cc(OCc3nc4ccccc4c(=O)n3-c3ccccc3)ccc12', 'GI50', '> 100 µM (inactive)'),
  ('C=CCCCCCCCCCP(=O)(c1ccccc1)c1ccc2c(c1)OCCOCCOCCOCCO2 (centres undefined)', 'GI50', '13.2 µM (inactive)');

Below: the item to evaluate.
# molecule O=c1n(Cc2ccccc2)c(=O)n2c(=O)n(Cc3ccccc3)c(=O)n12 ; its GI50 = > 100 µM (inactive)
